Form field: self-cleavage (one value per entry).
B1: Osa-1-4 twister ribozyme (parent)
chain: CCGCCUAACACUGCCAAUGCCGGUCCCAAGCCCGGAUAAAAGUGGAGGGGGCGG

Variants of: B1
PROTOCOL DETAILS: self-cleavage, relative activity (ratio to wild type); higher = more cleavage; co-transcriptional
Answer using only a numeral; do not append any unit.

Some variants with known self-cleavage results, for comparison:
INSERT INTO measurements (mutant_label, measured_value) VALUES
  ('C33A U24C', 0.05),
  ('G54A U24C', 0.13),
  ('A7U G54A', 0.07);

Query: Give the value of self-cleavage reported for the following: A46C C21A
Response: 0.06

Query: Complete the entry with self-cleavage for G42U G44A
Response: 0.35
